Tested Target: T1, dGAE (tau 297-391) (human, UniProt P10636 614-708)
T1 construct: also called dGAE95
T1 sequence (P10636 614-708 limits assumed): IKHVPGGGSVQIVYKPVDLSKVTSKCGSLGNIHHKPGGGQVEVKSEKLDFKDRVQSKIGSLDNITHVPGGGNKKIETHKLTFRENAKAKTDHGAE
Method Summary: tau-tau immunoassay: scAb preincubated with 100 nM dGAE; blocked ligand: plate-bound dGA (1000 nM); bound dGAE detected with E2E8
Returns one of 1 or 0; 1 when B50 is >= 80 nM.

Worked examples follow.
Binder	Class
S1G2 scAb (scFv, not shown: human C kappa domain and hexa-His tag of the scAb format) scFv: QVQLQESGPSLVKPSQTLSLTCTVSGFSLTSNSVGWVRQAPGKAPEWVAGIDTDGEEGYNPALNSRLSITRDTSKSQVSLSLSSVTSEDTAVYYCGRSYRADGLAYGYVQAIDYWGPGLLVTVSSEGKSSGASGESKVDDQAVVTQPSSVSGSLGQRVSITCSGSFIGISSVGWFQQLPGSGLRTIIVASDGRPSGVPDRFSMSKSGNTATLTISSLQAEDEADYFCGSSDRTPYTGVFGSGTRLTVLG	0
CB2 scAb (scFv, not shown: human C kappa domain and hexa-His tag of the scAb format) scFv: QVQLQESGPSLVKPSQTLSLTCTVSGFSLSTNSVGWVRQAPGKAPEWVAGIDTDGEEGFNPVLKSRLSITRDTSKSQVSLSLSNVTSEDTAVYYCGRSYRTDGLAYGYVQAIDYWGPGLLVTISSEGKSSGASGESKVDDQSVLTQPSSVSGSPGQTVSITCSGSYIGSSGVGWFQQLPGSGLRTIIVASDGRPSGVPDRFSMSKSGNTATLTISSLQAEDEADYFCGSSDRTQYTGLFGSGTRLTVLG	1

Determine whether this binder has B50 no lower than 80 nM: CA12 scAb (scFv, not shown: human C kappa domain and hexa-His tag of the scAb format) scFv: QVQLQGSGPSLVKPSQTLSLTCTVSGFSFDSYYVGWVRQAPGKALEWLGNIYSTGRAFYNPALKSRLSITRDTSKSQVSLSVSSVTIEDTALYYCVRGSYYHGGGNGMVDFFDYWSPGLLVTVSSEGKSSGASGESKVDDQVVRTQPSSVSGSLGQRVSITCSGSSSNVGYGNYVGWFQQVPGSAPKLLIYAATSRASGVPDRFSGSRSGNTATLTIDSLQAEDEADYYCSSYQRGNTGVFGSGTRLTVLG
0

I'd appreciate it if you could say whether CE2 scAb (scFv, also called CE2/E1B8; not shown: human C kappa domain and hexa-His tag of the scAb format) scFv: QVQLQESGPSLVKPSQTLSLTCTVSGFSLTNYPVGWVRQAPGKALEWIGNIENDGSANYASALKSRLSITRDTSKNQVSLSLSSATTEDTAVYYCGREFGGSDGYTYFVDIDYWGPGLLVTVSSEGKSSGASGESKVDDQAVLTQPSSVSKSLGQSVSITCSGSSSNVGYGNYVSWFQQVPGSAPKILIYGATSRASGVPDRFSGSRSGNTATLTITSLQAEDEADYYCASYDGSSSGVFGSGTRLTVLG has B50 at least equal to 80 nM.
1

# bool: B50 of S1G10 scAb (scFv, not shown: human C kappa domain and hexa-His tag of the scAb format) scFv: QVQLQESGPSLVKPSQTLSLTCTVSGFSLTSNSVGWVRQAPGKAPEWVAGIDTDGEEGYNPALNSRLSITRDTSKSQVSLSLSSVTSEDTAVYYCGRSYRADGLAYGYVQAIDYWGPGLLVTVSSEGKSSGASGESKVDDQAVLTQPSSMSGSLGQRVSITCSGSFIGISSVGWFQQLPGSGLRTIIVASDGRPSGVPDRFSMSKSGNTATLTISSLQAEDEADYFCGSSDRTQYTGVFGSGTRLTVLG >= 80 nM
1

Textbook exercise: given the entry S1E12 scAb (scFv, not shown: human C kappa domain and hexa-His tag of the scAb format) scFv: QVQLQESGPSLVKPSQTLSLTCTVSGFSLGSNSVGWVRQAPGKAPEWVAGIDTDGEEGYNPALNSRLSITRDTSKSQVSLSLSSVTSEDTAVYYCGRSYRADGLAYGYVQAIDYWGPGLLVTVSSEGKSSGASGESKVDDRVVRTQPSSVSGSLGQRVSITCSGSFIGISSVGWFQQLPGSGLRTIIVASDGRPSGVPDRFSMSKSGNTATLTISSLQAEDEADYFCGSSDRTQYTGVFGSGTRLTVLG , state whether its B50 is greater than or equal to 80 nM.
1

Source: patent US20230257452A1
